Listed compounds paired with reported JAK3/AurB Fold Selectivity
biological target: Aurora B (Homo sapiens, UniProt Q96GD4); construct: cell lysates from Jurkat cells (ATCC TIB-152) used; endogenous in cells; host or cells: Jurkat cells (ATCC TIB-152), treated with pervanadate; assay: Kinobeads assay, Aurora B; format: binding
Sequence (Q96GD4 whole entry): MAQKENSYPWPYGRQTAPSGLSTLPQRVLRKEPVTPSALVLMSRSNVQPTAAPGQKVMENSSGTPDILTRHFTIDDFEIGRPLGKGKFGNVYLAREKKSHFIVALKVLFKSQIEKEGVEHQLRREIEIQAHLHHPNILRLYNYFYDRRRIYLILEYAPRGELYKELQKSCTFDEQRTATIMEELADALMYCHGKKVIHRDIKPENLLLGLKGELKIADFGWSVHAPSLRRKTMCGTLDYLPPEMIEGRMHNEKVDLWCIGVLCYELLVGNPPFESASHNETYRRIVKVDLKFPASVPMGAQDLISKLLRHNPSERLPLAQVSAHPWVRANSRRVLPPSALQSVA

| compound | JAK3/AurB Fold Selectivity |
| --- | --- |
| NCCCn1cc(Nc2ncc3cnn(Cc4cccc(N5CCOCC5)c4)c3n2)cn1 [Example 34] | >50 Fold |
| OCCn1cc(Nc2ncc3cnn(Cc4cc(F)cc(N5CCNCC5)c4)c3n2)cn1 [Example 93] | 10-50 Fold |
| Cn1cc(Nc2ncc3cnn(Cc4cccc(N5CCOCC5=O)c4)c3n2)cn1 [Example 27] | 10-50 Fold |
| Cn1cc(Nc2ncc3cnn(Cc4cc(C(=O)N5CCOCC5)cc(F)c4F)c3n2)cn1 [Example 98] | 3-10 Fold |
| Cn1cc(Nc2ncc3cnn(Cc4cccc(-c5cnn(C)c5)c4F)c3n2)cn1 [Example 123] | >50 Fold |
| CN(C)CC(O)Cn1cc(Nc2ncc3cnn(Cc4cccc(N5CCOCC5)c4)c3n2)cn1 (stereo not shown) [Example 33] | 10-50 Fold |
| Cn1cc(Nc2ncc3cnn(Cc4cccc(N5CC6(COC6)C5)c4)c3n2)cn1 [Example 89] | >50 Fold |
